Biological target: T1, mouse RFPL4, full-length (amino acid residues 1-287) (mouse, UniProt Q8VH31 1-287)
T1 construct: One entry is used for all tagged forms; CHO cells: C-terminal FLAG (pCMV-Tag4A) or C-terminal MYC (pCMV-Tag5A); Western blot: endogenous protein in mouse tissue lysates; also called mRFPL4; pGBKT7-RFPL4
T1 sequence (looked up): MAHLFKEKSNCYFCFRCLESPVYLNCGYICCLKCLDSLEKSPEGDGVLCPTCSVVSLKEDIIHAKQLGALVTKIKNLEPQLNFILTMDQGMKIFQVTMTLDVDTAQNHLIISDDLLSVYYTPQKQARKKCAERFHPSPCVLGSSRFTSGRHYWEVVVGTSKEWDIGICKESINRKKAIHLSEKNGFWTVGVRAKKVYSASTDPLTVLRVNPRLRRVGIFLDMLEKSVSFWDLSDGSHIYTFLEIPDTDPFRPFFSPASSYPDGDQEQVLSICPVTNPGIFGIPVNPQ
Test: yeast two-hybrid mating screen of the ovary cDNA library with pGBKT7-RFPL4 as bait
measured parameter: # of clones
# number then unit; no other words

Note # of clones for the binder shown: Myosin light chain, alkali, non-muscle (MYLN) (other, mouse, UniProt Q60605 1-151, looked up, Prey from the ovary cDNA library (pGADT7); Tags as for the other preys) MCDFTEDQTAEFKEAFQLFDRTGDGKILYSQCGDVMRALGQNPTNAEVLKVLGNPKSDEMNVKVLDFEHFLPMLQTVAKNKDQGTYEDYVEGLRVFDKEGNGTVMGAEIRHVLVTLGEKMTEEEVEMLVAGHEDSNGCINYEAFVRHILSG
3 clones

Note # of clones for the binder shown: Solute carrier family 25, member 5 (SLC25A5) (other, mouse, UniProt P51881 1-298, looked up, Prey from the ovary cDNA library (pGADT7)) MTDAAVSFAKDFLAGGVAAAISKTAVAPIERVKLLLQVQHASKQITADKQYKGIIDCVVRIPKEQGVLSFWRGNLANVIRYFPTQALNFAFKDKYKQIFLGGVDKRTQFWRYFAGNLASGGAAGATSLCFVYPLDFARTRLAADVGKAGAEREFKGLGDCLVKIYKSDGIKGLYQGFNVSVQGIIIYRAAYFGIYDTAKGMLPDPKNTHIFISWMIAQSVTAVAGLTSYPFDTVRRRMMMQSGRKGTDIMYTGTLDCWRKIARDEGSKAFFKGAWSNVLRGMGGAFVLVLYDEIKKYT
1 clones

Note # of clones for the binder shown: Cytochrome C oxidase subunit II (MT-CO2) (other, mouse, UniProt P00405 1-227, looked up, Prey from the ovary cDNA library (pGADT7)) MAYPFQLGLQDATSPIMEELMNFHDHTLMIVFLISSLVLYIISLMLTTKLTHTSTMDAQEVETIWTILPAVILIMIALPSLRILYMMDEINNPVLTVKTMGHQWYWSYEYTDYEDLCFDSYMIPTNDLKPGELRLLEVDNRVVLPMELPIRMLISSEDVLHSWAVPSLGLKTDAIPGRLNQATVTSNRPGLFYGQCSEICGSNHSFMPIVLEMVPLKYFENWSASMI
2 clones
